molecular target: human M4 muscarinic acetylcholine receptor (Homo sapiens); assay: human FLIPR-based M4 PAM assay (calcium mobilization, CHO-K1 cells with human M4 receptor and Gαqi5); conditions: inflection point (IP) of dose response curve, acetylcholine added at 20% of maximum response, read-out: M4 FLIPPR Hu IP
Sequence (P08173 whole entry): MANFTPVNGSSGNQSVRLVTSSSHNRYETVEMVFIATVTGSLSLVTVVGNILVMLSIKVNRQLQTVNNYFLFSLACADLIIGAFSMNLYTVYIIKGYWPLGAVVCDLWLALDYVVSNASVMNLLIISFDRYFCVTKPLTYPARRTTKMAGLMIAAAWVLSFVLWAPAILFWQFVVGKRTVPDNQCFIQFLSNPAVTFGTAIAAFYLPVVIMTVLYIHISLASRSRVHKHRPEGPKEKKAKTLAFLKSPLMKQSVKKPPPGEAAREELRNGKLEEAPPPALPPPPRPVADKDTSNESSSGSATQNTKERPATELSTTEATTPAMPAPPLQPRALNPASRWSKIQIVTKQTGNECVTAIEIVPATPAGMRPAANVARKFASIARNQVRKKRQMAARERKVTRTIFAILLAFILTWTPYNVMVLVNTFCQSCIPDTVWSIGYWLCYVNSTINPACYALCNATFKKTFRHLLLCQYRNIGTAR
pEC50: recorded values
Formally, pEC50 is defined as -log10 of the concentration c, with c in mol/L.

Example cases with answers are listed next.
Cc1cn2ccc(-c3nc(C#N)ccc3-c3cnc(CCC(F)(F)F)o3)cc2n1 :: 7.02
CN1Cc2ncc(-c3nc(C#N)ccc3-c3cnc(CC(C)(C)C)o3)cc2C1=O :: 6.82
Cc1nc2cc(-c3nc(C#N)ccc3-c3cnc(CC(C)(C)C)o3)ccn2n1 :: 6.97
CN1Cc2ccc(-c3nc4c(cc3-c3cnc(CC5(C)CCCC5)o3)CCC4=O)cc2C1=O :: 7.35
Cc1nc(CC2CCCC2)oc1-c1ccc(C#N)nc1-c1ccc2cccnc2c1 :: 7.31

# pEC50 (compound: Cc1nc2cc(-c3nc(C#N)ccc3-c3cnc(CC4CC(F)(F)C4)o3)ccn2n1 ) is 7.05

# pEC50 (compound: CN1Cc2ccc(-c3nc(C#N)ccc3-c3cnc(CC4(O)CCCC4)o3)cc2C1=O ) is 6.74

# pEC50 (compound: N#Cc1ccc(-c2cnc(CC3CCC3)o2)c(-c2ccc3cccnc3c2)n1 ) is 7.52

# pEC50 (compound: Cc1cn2ccc(-c3nc(C#N)ccc3-c3cnc(CC4(F)CC4)o3)cc2n1 ) is 6.80
